# Test system: 439559-082-T-J2-PDC spheroids viability
# PROTOCOL_TEXT: Anticancer human tumor 439559-082-T-J2-PDC patient-derived colon adenocarcinoma cell line growth inhibition [GQUAD]
# CONDITION_DESCRIPTION: second compound 0.316 µM; first compound 10 µM; stronger effect = lower value
Exercise: for every item that follows, state its recorded viability, T/C.
Answers are plain numbers, in %.

1) O=c1[nH]cc(F)c(=O)[nH]1 + CN(C)c1ccc(Nc2c3ccc(NC(=O)CCN4CCCC4)cc3nc3cc(NC(=O)CCN4CCCC4)ccc23)cc1    75.2
2) CC(C)(O)C1CCC(Nc2ccc3ncc(-c4cccc(C(F)(F)F)c4)n3n2)CC1 (stereo not given) + Cc1cnc(CNC(=O)c2c(=O)c3ccc(N4CCCN(C)CC4)nc3n3c2sc2ccccc23)cn1    14.1
3) COc1cc(C2c3cc4c(cc3C(OC3OC5COC(C)OC5C(O)C3O)C3COC(=O)C23)OCO4)cc(OC)c1O (stereo not given) + Cc1cnc(CNC(=O)c2c(=O)c3ccc(N4CCCN(C)CC4)nc3n3c2sc2ccccc23)cn1    56.3
4) Nc1ccn(C2OC(CO)C(O)C2(F)F)c(=O)n1 (stereo not given) + CN(C)c1ccc(Nc2c3ccc(NC(=O)CCN4CCCC4)cc3nc3cc(NC(=O)CCN4CCCC4)ccc23)cc1    20.8

Which value of viability, T/C has been reported for COc1ncnc(C2CC2)c1-c1ncc2cnn(Cc3ccc(-c4nc(C(F)(F)F)cn4C(C)C)cc3)c2n1 + Cc1cnc(CNC(=O)c2c(=O)c3ccc(N4CCCN(C)CC4)nc3n3c2sc2ccccc23)cn1 in the records?
77.4

###

Exercise: for every item that follows, state its recorded pIC50.
# System: 439559-082-T-J2-PDC spheroids viability
# PROTOCOL_TEXT: Anticancer human tumor 439559-082-T-J2-PDC cell line growth inhibition [GQUAD];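 also: spheroids exposed to the agents for 7 days before readout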
# CONDITION_DESCRIPTION: curve of first compound; second compound 0.0316 µM
pIC50: −log10 of the molar value.

1) CC1COCCN1c1cc(C2(S(C)(=N)=O)CC2)nc(-c2ccnc3[nH]ccc23)n1 (stereo not drawn) + Cc1[nH]c2ccc(F)cc2c1-c1nc2c3cccnc3c3ncccc3c2[nH]1    < 5.00
2) O=c1[nH]cc(F)c(=O)[nH]1 + Cc1cnc(CNC(=O)c2c(=O)c3ccc(N4CCCN(C)CC4)nc3n3c2sc2ccccc23)cn1    < 5.00

Which value of pIC50 has been reported for O=c1[nH]cc(F)c(=O)[nH]1 + Cc1[nH]c2ccc(F)cc2c1-c1nc2c3cccnc3c3ncccc3c2[nH]1 in the records?
< 5.00

These entries and their values trace back to PubChem BioAssay AID2060510.
